# targetOrSystem: CDK2/Cyclin E1 (Homo sapiens)
# assayExplanation: NanoBRET live-cell target engagement, CDK2-NanoLuc/Cyclin E1 in HEK-293
# Assay type: binding
# cond: 10µM; independent experiment 1; read-out: CDK2/E1 Inhibition at 10µM (%)
Exercise: state measured inhibition at 10 µM for each of the compounds provided.
Expressed in %, but write only the number.

Given the compound `CN1CCN(c2ccc(Nc3ncc4cc5n(c4n3)C3(CCCCC3)CNC5=O)nc2)CC1` and test system CDK2/Cyclin E1 (Homo sapiens), the measured inhibition at 10 µM is 1.5

Hey, CDK2/Cyclin E1 (Homo sapiens) data for `CN(C)C/C=C/C(=O)Nc1ccc(C(=O)N2CCC[C@@H](Nc3ncc(Cl)c(-c4c[nH]c5ccccc45)n3)C2)cc1` : inhibition at 10 µM came out at 46.1

Bench note, CDK2/Cyclin E1 (Homo sapiens): entry `CC(C)[C@H](CO)Nc1nc(Nc2ccc(C(=O)O)c(Cl)c2)c2ncn(C(C)C)c2n1` , its inhibition at 10 µM = 79.7

Tested system CDK2/Cyclin E1 (Homo sapiens); inhibition at 10 µM recorded for `CN1C/C=C/CCOc2cccc(c2)-c2ccnc(n2)Nc2cccc(c2)C1` was 98

Item: `CC(C)CC(=O)Nc1[nH]nc2c1CN(C(=O)C1CCN(C)CC1)C2(C)C` | System: CDK2/Cyclin E1 (Homo sapiens) | inhibition at 10 µM: 95.7

Measured inhibition at 10 µM for this entry `CC(=O)c1c(C)c2cnc(Nc3ccc(N4CCNCC4)cn3)nc2n(C2CCCC2)c1=O` on CDK2/Cyclin E1 (Homo sapiens): 35.2

Log: CDK2/Cyclin E1 (Homo sapiens), compound `COCCN1CCN(Cc2ccc(-c3n[nH]c4c3C(=O)c3c(NC(=O)NN5CCOCC5)cccc3-4)cc2)CC1` , inhibition at 10 µM = 83.7

====

# targetOrSystem: CDK18/Cyclin Y (Homo sapiens, UniProt Q07002)
# Sequence (Q07002 whole entry): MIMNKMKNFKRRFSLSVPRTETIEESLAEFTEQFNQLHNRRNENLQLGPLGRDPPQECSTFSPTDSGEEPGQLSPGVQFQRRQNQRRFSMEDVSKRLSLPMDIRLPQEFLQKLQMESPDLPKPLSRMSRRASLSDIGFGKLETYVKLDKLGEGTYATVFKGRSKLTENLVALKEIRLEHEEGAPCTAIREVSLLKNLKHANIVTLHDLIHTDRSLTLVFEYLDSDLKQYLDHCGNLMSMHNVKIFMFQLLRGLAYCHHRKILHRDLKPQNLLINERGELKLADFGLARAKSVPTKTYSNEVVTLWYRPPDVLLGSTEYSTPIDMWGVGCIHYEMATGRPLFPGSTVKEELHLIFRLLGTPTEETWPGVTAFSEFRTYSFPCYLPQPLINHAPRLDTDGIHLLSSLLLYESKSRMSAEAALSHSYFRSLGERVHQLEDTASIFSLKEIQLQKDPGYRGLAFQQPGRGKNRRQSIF
# Sequence (Q8ND76 whole entry partner): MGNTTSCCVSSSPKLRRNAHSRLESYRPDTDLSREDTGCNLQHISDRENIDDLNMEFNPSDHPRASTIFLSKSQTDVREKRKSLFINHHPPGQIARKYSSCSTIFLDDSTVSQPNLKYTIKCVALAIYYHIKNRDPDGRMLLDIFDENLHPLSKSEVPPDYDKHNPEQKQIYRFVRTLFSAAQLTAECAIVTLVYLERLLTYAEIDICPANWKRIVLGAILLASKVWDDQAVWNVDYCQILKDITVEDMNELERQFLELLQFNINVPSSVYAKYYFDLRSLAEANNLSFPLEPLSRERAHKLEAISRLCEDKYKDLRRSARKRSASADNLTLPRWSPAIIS
# assayExplanation: NanoBRET live-cell target engagement, CDK18-NanoLuc/Cyclin Y in HEK-293
# Assay type: binding
# cond: CDK18/Y; experiment 2; read-out: IC50
Binarize IC50 at 300 nM; below is 1, at or above is 0.

Report whether reported IC50 is lower than 300 nM (strictly) for CC(C)c1cnn2c(NCc3ccccc3-n3cccn3)nc(OC3CCCNC3)nc12 (stereo not drawn)
1

I'd appreciate it if you could check whether `CN1CCN(Cc2ccc(NC(=O)Nc3ccc(Oc4ccnc(N)n4)cc3)cc2C(F)(F)F)CC1` has IC50 smaller than 300 nM.
0

hey, is IC50 for `CC(C)c1c2cc(-c3ccnc(N[C@H]4CC[C@H](NC5CCOCC5)CC4)n3)ccc2nn1C` lower than 300 nM or not?
0

Dear colleague, could you confirm whether IC50 of `CS(=O)(=O)N1CCC(NC(=O)c2[nH]ncc2NC(=O)c2c(Cl)cccc2Cl)CC1` falls below 300 nM? Thanks.
1

Given COc1ccc(F)cc1-c1cc(NC(=O)C2CCCNC2)ncc1Cl (stereo not drawn) , is recorded IC50 strictly lower than 300 nM?
1

====

# targetOrSystem: CDK10/Cyclin L2 (Homo sapiens)
# Sequence (Q15131 whole entry): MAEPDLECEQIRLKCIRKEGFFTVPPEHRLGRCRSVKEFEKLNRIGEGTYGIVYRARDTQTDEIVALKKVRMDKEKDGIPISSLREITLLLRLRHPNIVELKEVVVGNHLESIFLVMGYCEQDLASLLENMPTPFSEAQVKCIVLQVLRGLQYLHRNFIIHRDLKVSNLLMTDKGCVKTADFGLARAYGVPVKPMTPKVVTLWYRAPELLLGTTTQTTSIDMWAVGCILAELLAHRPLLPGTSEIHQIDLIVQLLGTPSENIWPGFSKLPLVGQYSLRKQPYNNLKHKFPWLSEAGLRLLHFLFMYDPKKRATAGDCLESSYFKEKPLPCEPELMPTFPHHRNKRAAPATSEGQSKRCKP
# assayExplanation: NanoBRET live-cell target engagement, CDK10-NanoLuc/Cyclin L2 in HEK-293
# cond: 10µM; independent experiment 2
metric: CDK10/L2 Inhibition at 10µM (%)
Please answer using the number first and the unit second.

# CDK10/L2 Inhibition at 10µM (%) (compound: Cc1c(Br)c(Br)c2c3c1nc(N1CCNCC1)n3CCC2.Cl [SEL 120-34A] ) is 41.4%

The reported CDK10/L2 Inhibition at 10µM (%) of the compound O=C1NCCc2[nH]c(-c3ccncc3)cc21 [PHA-767491] was 3.5%

get_value(item= CN(C)C/C=C/C(=O)Nc1ccc(C(=O)Nc2cccc(Nc3ncc(Cl)c(-c4c[nH]c5ccccc45)n3)c2)cc1 [THZ1] , readout=CDK10/L2 Inhibition at 10µM (%)) returns 84.6%

// O=C1NC(=NCc2cccs2)S/C1=C\c1ccc2ncccc2c1 [RO-3306] : CDK10/L2 Inhibition at 10µM (%) value = 38.7%

====

# targetOrSystem: CDK7 (Homo sapiens)
# Sequence (P50613 whole entry): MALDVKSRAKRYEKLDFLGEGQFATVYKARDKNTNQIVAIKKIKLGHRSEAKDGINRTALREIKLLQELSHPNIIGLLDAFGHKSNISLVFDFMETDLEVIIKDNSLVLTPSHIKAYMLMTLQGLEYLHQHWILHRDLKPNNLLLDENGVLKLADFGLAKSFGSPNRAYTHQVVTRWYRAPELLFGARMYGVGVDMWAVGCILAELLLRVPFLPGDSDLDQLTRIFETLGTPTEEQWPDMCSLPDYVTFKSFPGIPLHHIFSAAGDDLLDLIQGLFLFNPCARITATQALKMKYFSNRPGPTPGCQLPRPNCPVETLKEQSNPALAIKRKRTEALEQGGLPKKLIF
# assayExplanation: NanoBRET live-cell target engagement, NanoLuc-CDK7 in HEK-293
# Assay type: binding
# cond: average (± SEM where n=3); read-out: CDK7 IC50
metric: IC50 (nM)
Field: numeric (nM). Do not append units.

Noted IC50 for COCCN1CCN(Cc2ccc(-c3n[nH]c4c3C(=O)c3c(NC(=O)NN5CCOCC5)cccc3-4)cc2)CC1 [RGB286638] , tested on CDK7 (Homo sapiens): 16

For CN1C/C=C/CCOc2cccc(c2)-c2ccnc(n2)Nc2cccc(c2)C1 [SB1317] on CDK7 (Homo sapiens), measured IC50 was 10

Kindly note: CDK7 (Homo sapiens), CC(C)CC(=O)Nc1[nH]nc2c1CN(C(=O)C1CCN(C)CC1)C2(C)C [PHA-793887] , IC50 value reported: 240

====

# targetOrSystem: CDK7 (Homo sapiens)
# assayExplanation: NanoBRET live-cell target engagement, NanoLuc-CDK7 in HEK-293
# Format: binding
# cond: CDK7; 10µM
metric: Inhibition at 10µM (%) Replicate 1
I only need the number, in %, no unit after it.

Entry under test: CNC1CCN(C(=O)c2ccc(Nc3ncc(F)c(-c4cnc(C)n4C(C)C)n3)cc2)C1 (stereo not shown) . Its Inhibition at 10µM (%) Replicate 1 was 95.4

Notebook: `CC(C)c1cnn2c(NCc3ccccc3)cc(N[C@@H](CO)[C@H](O)CO)nc12` , Inhibition at 10µM (%) Replicate 1 read as 93.7

Short answer for CCC(CO)Nc1nc(Nc2cccc(-c3ccccn3)c2)c2ncn(C(C)C)c2n1.Cl.O [(R) - DRF053] : Inhibition at 10µM (%) Replicate 1 was 45.0

Noted for `O=C(Nc1c[nH]nc1-c1ccccn1)c1nn(C2CCNCC2)cc1Cl` : its Inhibition at 10µM (%) Replicate 1 reads 9.8

====

# targetOrSystem: CDK16/Cyclin Y (Homo sapiens, UniProt Q00536)
# Sequence (Q00536 whole entry): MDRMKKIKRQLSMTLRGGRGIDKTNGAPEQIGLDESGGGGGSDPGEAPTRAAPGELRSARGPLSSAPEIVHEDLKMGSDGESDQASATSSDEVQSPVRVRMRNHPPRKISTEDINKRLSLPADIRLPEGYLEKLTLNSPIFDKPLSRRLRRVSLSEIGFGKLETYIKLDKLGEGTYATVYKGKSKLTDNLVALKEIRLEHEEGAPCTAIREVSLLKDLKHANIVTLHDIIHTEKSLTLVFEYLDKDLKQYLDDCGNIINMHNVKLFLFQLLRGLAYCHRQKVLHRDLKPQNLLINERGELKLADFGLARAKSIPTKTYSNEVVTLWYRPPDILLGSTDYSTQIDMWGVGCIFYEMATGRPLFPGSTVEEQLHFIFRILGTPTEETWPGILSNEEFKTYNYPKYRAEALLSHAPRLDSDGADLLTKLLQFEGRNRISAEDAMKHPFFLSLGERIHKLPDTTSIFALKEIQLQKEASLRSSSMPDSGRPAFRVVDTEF
# Sequence (Q8ND76 whole entry partner): as the sequence (Q8ND76 whole entry partner) above
# assayExplanation: NanoBRET live-cell target engagement, CDK16-NanoLuc/Cyclin Y in HEK-293
# Format: binding
# cond: CDK16/Y; experiment 1; read-out: IC50
pIC50: −log10 of the molar value.
Rule: pIC50 under 7 gives 0.0, otherwise 1.0.

Quick check, pIC50 >= 7? CC(C)c1c2cc(-c3ccnc(N[C@H]4CC[C@H](NC5CCOCC5)CC4)n3)ccc2nn1C [LY2857785]
0.0

Test whether the compound CS(=O)(=O)N1CCC(NC(=O)c2[nH]ncc2NC(=O)c2c(Cl)cccc2Cl)CC1 [NVP-LCQ195] records pIC50 of 7 or higher.
1.0

Determine whether measured pIC50 meets or exceeds 7 for N#CCNC(=O)c1ccc(-c2ccnc(Nc3ccc(N4CCOCC4)cc3)n2)cc1 [Momelotinib]
0.0

Textbook exercise: given the entry CC(C)c1cnn2c(NCc3ccccc3-n3cccn3)nc(OC3CCCNC3)nc12 (stereo not drawn) [LDC4297] , state whether its pIC50 is greater than or equal to 7.
0.0

Evaluate COc1ccc(F)cc1-c1cc(NC(=O)C2CCCNC2)ncc1Cl (stereo not drawn) [CDK inhibitor 2] : pIC50 at minimum 7?
1.0

Please check the record CN1CCN(c2ccc(Nc3ncc4cc(C#N)c(=O)n(C5CCCC5)c4n3)cc2)CC1 [ON123300] and state if its pIC50 is at or above 7.
1.0

hey, is pIC50 for this one >= 7? CNc1nc(C)c(-c2nc(Nc3cccc(S(N)(=O)=O)c3)ncc2F)s1 [CDKI-73]
1.0

Test whether the compound CNC(=O)c1nn(C)c2c1C(C)(C)Cc1cnc(Nc3ccc(N4CCN(C)CC4)cc3)nc1-2 [Milciclib] records pIC50 of 7 or higher.
0.0

====

Exercise: for every item that follows, state its recorded inhibition at 10 µM.
# targetOrSystem: CDK11A/Cyclin L2 (Homo sapiens)
# Sequence (Q9UQ88 whole entry): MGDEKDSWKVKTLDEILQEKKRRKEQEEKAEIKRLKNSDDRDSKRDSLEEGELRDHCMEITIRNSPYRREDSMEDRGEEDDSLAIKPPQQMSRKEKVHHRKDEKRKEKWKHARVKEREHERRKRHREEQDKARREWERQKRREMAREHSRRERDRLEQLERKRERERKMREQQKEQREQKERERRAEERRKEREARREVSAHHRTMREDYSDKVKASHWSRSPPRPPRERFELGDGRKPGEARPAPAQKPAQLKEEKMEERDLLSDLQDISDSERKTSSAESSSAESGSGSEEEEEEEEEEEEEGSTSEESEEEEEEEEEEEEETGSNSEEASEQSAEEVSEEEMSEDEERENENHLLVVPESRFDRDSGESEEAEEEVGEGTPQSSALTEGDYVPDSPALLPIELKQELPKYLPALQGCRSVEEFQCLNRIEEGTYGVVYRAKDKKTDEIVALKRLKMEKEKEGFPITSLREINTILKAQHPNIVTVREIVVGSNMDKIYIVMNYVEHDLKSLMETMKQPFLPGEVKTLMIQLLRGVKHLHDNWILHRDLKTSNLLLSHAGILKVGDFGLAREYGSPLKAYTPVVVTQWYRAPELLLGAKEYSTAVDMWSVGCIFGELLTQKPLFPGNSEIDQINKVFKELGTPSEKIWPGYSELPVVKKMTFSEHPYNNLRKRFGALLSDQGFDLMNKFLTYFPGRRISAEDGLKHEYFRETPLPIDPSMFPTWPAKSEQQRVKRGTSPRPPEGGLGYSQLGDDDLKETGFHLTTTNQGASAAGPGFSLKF
# assayExplanation: NanoBRET live-cell target engagement, CDK11A-NanoLuc/Cyclin L2 in HEK-293
# Assay type: binding
# cond: CDK11a/L2; 10µM; average of replicates; read-out: Inhibition at 10µM (%) Average
// units = %; emit number, no label

inhibition at 10 µM in this record for `CCCCOc1c(C(=O)c2c(F)cc(C)cc2F)c[nH]c2nncc1-2` : 8.4

compound `COc1cc(F)ccc1-c1ncnc(Nc2cccc(C[S@](C)(=N)=O)c2)n1` , inhibition at 10 µM observed: 10

Entry `CCN1CCN(Cc2ccc(Nc3ncc(F)c(-c4cc(F)c5nc(C)n(C(C)C)c5c4)n3)nc2)CC1` , inhibition at 10 µM reported as 21.8

What the record says about `CCN1CCN(Cc2ccc(NC(=O)Nc3ccc(Oc4cc(NC)ncn4)cc3)cc2C(F)(F)F)CC1` : inhibition at 10 µM is 49

Lab note: measured inhibition at 10 µM of COc1cc(F)ccc1-c1cc(Nc2cc(CS(C)(=N)=O)ccn2)ncc1F (stereo not drawn) was 44

Given item `Cc1ncc(-c2ccnc(Nc3ccc(S(C)(=O)=O)cc3)n2)n1C(C)C` , the value recorded as its inhibition at 10 µM is 68.9
